Target: the molecule itself
Experiment: cross-linking; Mg2+-loaded proteins: 0.02% glutaric aldehyde, 16 h, 20 °C, protein 1 mg/mL, 20 mM Tricine-KOH pH 7.4, 50 mM KCl, 1 mM DTT, 1 mM MgCl2, 1 mM EGTA; SDS-PAGE, Coomassie, densitometry; self-association
parameter: Dimer 50 kDa, %
Phrase the answer as number then unit, nothing more needed.

What value of Dimer 50 kDa, % has been recorded for this entry: human recoverin mutant F106A (natural protein, UniProt P35243 1-200, looked up, myristoylated (fraction of non-myristoylated forms did not exceed 16%), recoverin, human, UniProt P35243, C-terminal 'black' cluster mutant; Parent construct as m1; source: E. coli, expressed and purified similarly to the rWT protein (phenyl-Sepharose, Toyopearl SuperQ-650M)) MGNSKSGALSKEILEELQLNTKFSEEELCSWYQSFLKDCPTGRITQQQFQSIYAKFFPDTDPKAYAQHVFRSFDSNLDGTLDFKEYVIALHMTTAGKTNQKLEWAASLYDVDGNGTISKNEVLEIVMAIFKMITPEDVKLLPDDENTPEKRAEKIWKYFGKNDDDKLTEKEFIEGTLANKEILRLIQFEPQKVKEKMKNA
35.4%
